aptazyme ON/OFF ratio by entry:
B1: Pistol ribozyme (parent)
chain: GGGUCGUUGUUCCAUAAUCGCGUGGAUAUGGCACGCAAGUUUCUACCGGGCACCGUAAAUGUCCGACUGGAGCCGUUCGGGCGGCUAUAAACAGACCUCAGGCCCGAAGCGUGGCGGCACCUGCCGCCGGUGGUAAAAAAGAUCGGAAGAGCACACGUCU

- Variants of: B1
- Experiment description: aptazyme ON/OFF ratio, guanine; higher = stronger switching; co-transcriptional cleavage with and without guanine

Mutation | aptazyme ON/OFF ratio
U7C U8C G9A U10A | 1.54
U7C G9U U10C U11A C12U C13G | 1.04
U7A G9A U10A C12G C13G | 1.3
U7A U8C G9U U10A U11C | 1.01
U8A G9U U10G C12A C13A | 1.18
U7G U8C U10G U11A C12U C13A | 1.13
U7C U8A G9U U10A U11A C12A C13A | 1.13
U8C G9A U10G U11A C12U | 1.04
G9C U11C C13U | 1.04
U7C G9C U10G C13U | 1.07
U8C G9U U10A U11A C12A | 1.39
U7G U8A G9C U10A U11C C12U | 1.04
U7G U8A G9A U11G C12A C13A | 1.05
U7G G9C U10C U11G C12U | 1.57
U7C U8A G9A U10C U11C C12A C13G | 1.05
U7A U8A U10G U11C C12A C13A | 1.28
U7C U8C G9C U10G C12G C13G | 1.09
U8G G9U U10C U11C C13U | 1.02
U8G U10G U11C C12G C13A | 1.11
U7G U8C G9C U10C U11C C12G | 1.06
U7C U8C G9A U10C C13A | 1.47
U7C U8A G9A U10A C12A C13U | 1.26
U7C G9A U10A C12U C13G | 1.2
U7C U8G U10A U11A C13A | 1.12
U7A U8C G9C U10G U11C C12U C13U | 1.11
U7C U8A G9U U10C U11G C12U C13A | 1.12
U7G U8G G9A U10G U11G C12A C13A | 1.1
U7G U8G U10A U11A C12G C13U | 1.13
U7G U8G U10C U11G C12G | 1.43
U7A U8C G9U U11G C12G | 1.16
U7A U8A G9A U10A U11G C12U | 1.19
U7A G9C U10G U11G C12A | 1.11
U8C G9C U10C U11C C13U | 0.96
U8A G9C U10C U11G C12A C13A | 1.06
U7G U8G G9U U10G U11A C12A C13G | 1.06
U7C U8A G9U U10C C12U C13A | 1.12
U7C G9U U10C C13U | 1.5
U7A G9A C12A C13G | 1.13
U7C G9U U10C U11G C12G C13U | 1.11
G9U U10A U11G C12A C13G | 1.37
U7G U8C U10C U11G C12G C13A | 1.13
U7G U10C C13A | 1.04
U7A U8A U10G C12A C13G | 1.06
U7G U8C C12G C13G | 1.08
U7C U8A U10C U11G C12U C13U | 1.35
U7C U8G G9U U11C C12U C13U | 1.32
U8C G9A U10G U11C C13G | 1.07
U7G U8C G9U U10C C12A C13G | 1.27
U8A G9A U10C U11C C12U C13U | 1.05
U7G U8A G9A U10C U11A C12U | 1.08
U8G G9C U11C C12U C13A | 1.03
U7G G9C U10A U11C C12U C13U | 1.18
U7A G9U U10G U11C C12U | 1.06
U7C U8G G9A U10C U11G C12U | 1.29
G9U U10G U11C C12G C13U | 1.27
U8C U10C U11A C12U C13G | 1.23
U7C U8A U11A C12G C13G | 1.16
U7G U10G C12U | 1.39
U7A U8A G9U U10C U11C C12A C13G | 1.12
U7A U8C G9C U10A U11A C12G C13A | 1.05
U7C U8G U11G | 1.2
U7A U8G G9C U10C U11G C12A C13G | 1.15
U7A U8C G9A U10C U11A C12U C13U | 1.18
U7A U8C G9C C12A | 1.12
U7A G9A U10A U11G C12U C13A | 1.17
U8C G9A U10G U11G | 1.06
U7A U8C U10G U11C C13A | 1.18
U8C G9A U10G C12G C13A | 1.14
U7A U8A U10A U11G C13A | 1.16
U7G U8A G9C U10A U11A C12U C13G | 1.05
G9U U10C U11G C12G C13A | 1.17
U8A G9C U10C U11A C12G C13U | 1.16
G9C U11C C12A C13U | 1.16
U8C G9U U10G C12G C13A | 1.3
U8G G9A U10C U11G C12A C13A | 1.18
U7C G9A U10A U11C C12U C13U | 1.23
U8G G9C U10C U11G C12G C13U | 1.08
U7C U8C U11G C12G C13G | 1.16
U7G U10G U11A | 1.21
U8A G9U U10A C12A | 1.34
U7A U8A G9C U10A U11G | 1.24
U7C U8G G9A U10A | 1.18
U7C U8G G9A U10A U11A C13A | 1.12
U7G U8C U11A C12A | 1.37
U7G U8G G9C U11G C12A C13A | 1.14
U7A U8G G9U U10C C13G | 1.21
U7C U8C G9C U10A U11C C12A C13U | 1.13
U7G G9C U10A U11C C12A | 1.76
U7C U8G U10C U11A C12A C13A | 1.19
U8G G9U U10A U11A C12A | 1.34
U7G U8C U10A U11C C12G | 1.16
